B1: SLC6A17 (parent)
chain: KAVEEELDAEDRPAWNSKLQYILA

Variants of: B1
Protocol Notes: protein stability index of a GFP-peptide fusion (GPS, HEK-293T) (PSI 1-6); higher = more stable;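 also: lentivirally expressed fusions sorted by FACS into six bins by GFP to DsRed ratio, PSI derived from sequencing read proportions per bin multiplied by bin number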
Test Conditions: c terminus: a fixed tail appended
Observable: protein stability index
Simply state the number, no unit and no words.

If you can, please state the reported protein stability index value of D11V .
2

Thanks! And A9G ?
2.24

Please answer likewise for E10H
1.84

Now consider K18Q and answer again.
3.22

Request: N16K
2.52

Queued: A2P
2.68

Ref: the supplement of paper PMC10567573
